Biological target: Fc-fusion protein receptor ectodomain of BMPR-IA
Test: SPR (Biacore T100), receptor ectodomain-Fc on protein G chip, kinetic 1:1 fit; measurement 1
Binary label based on Kd with cut-off 20 nM: below gives yes, not below gives no.

Binder	Class Name
recombinant human GDF-5 mutant R399E (ligand) APLATRQGKRPSKNLKAECSRKALHVNFKDMGWDDWIIAPLEYEAFHCEGLCEFPLRSHLEPTNHAVIQTLMNSMDPESTPPTCCVPTRLSPISILFIDSANNVVYKQYEDMVVESCGCR	no
recombinant human GDF-5 wild type (ligand) APLATRQGKRPSKNLKARCSRKALHVNFKDMGWDDWIIAPLEYEAFHCEGLCEFPLRSHLEPTNHAVIQTLMNSMDPESTPPTACVPTRLSPISILFIDSANNVVYKQYEDMVVESCGCR	yes
human GDF-5 mutant S439K (ligand) APLATRQGKRPSKNLKARCSRKALHVNFKDMGWDDWIIAPLEYEAFHCEGLCEFPLRKHLEPTNHAVIQTLMNSMDPESTPPTCCVPTRLSPISILFIDSANNVVYKQYEDMVVESCGCR	no

Consider the binder recombinant human GDF-5 mutant R399M (ligand) APLATRQGKRPSKNLKAMCSRKALHVNFKDMGWDDWIIAPLEYEAFHCEGLCEFPLRSHLEPTNHAVIQTLMNSMDPESTPPTCCVPTRLSPISILFIDSANNVVYKQYEDMVVESCGCR . Is its Kd strictly less than 20 nM?
yes

Item: human GDF-5 mutant R438K (ligand) APLATRQGKRPSKNLKARCSRKALHVNFKDMGWDDWIIAPLEYEAFHCEGLCEFPLKSHLEPTNHAVIQTLMNSMDPESTPPTCCVPTRLSPISILFIDSANNVVYKQYEDMVVESCGCR
no
